Values compiled from patent US20260015426A1.

assayed.system: T1, hu-M-IL1RAP construct, positions S21-T367 (extracellular domain of the membrane form of human IL1RAP) (human, UniProt Q9NPH3 21-367)
T1 construct: Biotinylated when captured on the Biacore chip
T1 sequence: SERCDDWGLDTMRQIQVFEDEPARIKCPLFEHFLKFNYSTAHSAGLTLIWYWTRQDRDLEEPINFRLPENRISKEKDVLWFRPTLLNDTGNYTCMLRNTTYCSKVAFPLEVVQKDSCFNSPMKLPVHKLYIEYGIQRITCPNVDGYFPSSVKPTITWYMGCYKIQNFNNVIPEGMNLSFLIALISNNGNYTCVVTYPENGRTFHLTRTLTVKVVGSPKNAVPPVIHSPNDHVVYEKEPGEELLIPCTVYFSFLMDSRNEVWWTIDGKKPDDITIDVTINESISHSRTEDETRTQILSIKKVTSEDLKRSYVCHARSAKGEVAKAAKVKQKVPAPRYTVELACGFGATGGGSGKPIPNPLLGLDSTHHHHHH
assay.info: SPR, Fab analyte, 25 C
Each entry below carries its recorded koff.
The response must be a number in s⁻¹ with no trailing unit.

Worked cases, answers included:
binder: K15 Fab (VL T94V) (Fab, V domains shown, Fab with 8xHis tag) VH: EVQLVESGGGLVQPGGSLRLSCAASGFTFSNYAMSWVRQAPGKGLEWVATVTEGGDYNYYLDDVKGRFTISRDNAKNSLYLQMNSLRAEDTAVYYCARDRWPYFFDYWGQGTLVTVSS VL: DIQMTQSPSSLSASVGDRVTITCRASENIYSNLAWYQQKPGKSPKLLVYGAKNLADGVPSRFSGSGSGTDYTLTISSLQPEDFATYYCQHFWTVPRTFGGGTKVEIK
output.unit: s⁻¹
koff: 0.00068
//
binder: K9 Fab (VL A51D) (Fab, V domains shown, Fab with 8xHis tag) VH: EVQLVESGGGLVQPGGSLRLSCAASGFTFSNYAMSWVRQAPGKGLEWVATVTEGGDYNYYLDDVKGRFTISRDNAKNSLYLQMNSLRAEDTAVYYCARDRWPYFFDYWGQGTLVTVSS VL: DIQMTQSPSSLSASVGDRVTITCRASENIYSNLAWYQQKPGKSPKLLVYGDKNLADGVPSRFSGSGSGTDYTLTISSLQPEDFATYYCQHFWTTPRTFGGGTKVEIK
output.unit: s⁻¹
koff: 0.000103

Give the measured koff for K7 Fab (VL A51R) (Fab, V domains shown, Fab with 8xHis tag) VH: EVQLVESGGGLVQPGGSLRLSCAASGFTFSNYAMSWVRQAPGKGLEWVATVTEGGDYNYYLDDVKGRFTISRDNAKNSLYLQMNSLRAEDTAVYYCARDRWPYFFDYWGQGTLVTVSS VL: DIQMTQSPSSLSASVGDRVTITCRASENIYSNLAWYQQKPGKSPKLLVYGRKNLADGVPSRFSGSGSGTDYTLTISSLQPEDFATYYCQHFWTTPRTFGGGTKVEIK
6.26e-05
